- Tested target: T1, human TROP2-his protein (human, UniProt P09758 27-274)
- T1 construct: Biotin-labelled in the ELISAs, unlabelled analyte in Biacore; also called biotin-labeled human TROP2-his protein; biotin human Trop2-his
- T1 sequence: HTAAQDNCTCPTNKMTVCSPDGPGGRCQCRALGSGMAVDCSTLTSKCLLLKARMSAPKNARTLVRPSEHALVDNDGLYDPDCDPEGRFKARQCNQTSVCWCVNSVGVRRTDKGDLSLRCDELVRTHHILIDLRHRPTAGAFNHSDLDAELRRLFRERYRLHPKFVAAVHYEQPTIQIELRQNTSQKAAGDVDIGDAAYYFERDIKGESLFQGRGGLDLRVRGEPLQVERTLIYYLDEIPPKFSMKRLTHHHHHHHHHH
- Method summary: SPR Biacore T200, mAb captured on anti-mouse IgG CM5 chip, TROP2-his analyte
Assay endpoint: koff (s⁻¹)

Binder	Assay endpoint	Quantitative readout
mouse antibody A1B12D2B4E7B3 (antibody, V domains shown, Mouse monoclonal IgG purified from hybridoma supernatant) VH: EVQLQQSGPELVKPGASVKMSCKASGFTFTDYYMNWVKQSHGKSLEWIGYIYPNHGGTGYNQKFKDKATLTVDKSSSTAYMELRSLTSDDSAVYYCARENYGYAMDYWGQGTSVTVSS VL: DVVMTQTPLSLPVSLGDQASISCRSSQSLVHGDGNTYLHWFLQKPGQSPKLLIYTVSNRFSGVPDRFSGSGSGTDFTLKINRVEAEDLGIYFCSQTTHVPTFGGGTKLEIK	koff	8.92e-05
mouse antibody B1G1F5A3 (antibody, V domains shown, Mouse monoclonal IgG purified from hybridoma supernatant) VH: EVQLQQSGPELVKPGTSVKMSCKASGYSFADYSMNWVRQSHGNSLEWIGYIYPNNGASGFNQKFKGKATLTVDKSSSTAYMELHSLTSEDSAVYYCAREQDNSGYCFDYWGQGTSLTVSS VL: DVVMTQTPLSLAVRLGDQASISCRSSLNLVHSNGNTFLHWYLQRPGQSPKLLIYKVSNRFSGVSDRFSGSGSGTDFTLKISRVEAEDLGVYFCSQTTHVPTFGGGTKLEIK	koff	5.58e-05
